Provide the reported IC50 of each item.
- target_of_assay: Histone deacetylase 1 (Homo sapiens)
- Sequence (Q13547 whole entry): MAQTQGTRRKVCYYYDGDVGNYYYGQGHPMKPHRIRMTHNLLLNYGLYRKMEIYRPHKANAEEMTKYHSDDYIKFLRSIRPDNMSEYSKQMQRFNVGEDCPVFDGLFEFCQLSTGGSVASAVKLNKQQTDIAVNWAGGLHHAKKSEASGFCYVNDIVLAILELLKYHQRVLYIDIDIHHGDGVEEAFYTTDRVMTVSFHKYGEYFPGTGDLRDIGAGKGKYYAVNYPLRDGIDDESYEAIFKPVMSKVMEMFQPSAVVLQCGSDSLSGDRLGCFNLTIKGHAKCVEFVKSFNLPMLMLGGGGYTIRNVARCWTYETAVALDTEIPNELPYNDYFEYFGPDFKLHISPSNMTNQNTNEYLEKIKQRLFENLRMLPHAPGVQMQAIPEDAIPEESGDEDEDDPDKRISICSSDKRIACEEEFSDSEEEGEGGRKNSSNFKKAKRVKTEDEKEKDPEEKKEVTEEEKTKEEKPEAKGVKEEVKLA
- protocol_details: Inhibition of C-terminal FLAG/His-tagged recombinant human HDAC1 expressed in baculovirus infected Sf9 insect cells using Z-(Ac)Lys-AMC as substrate measured after 90 mins by fluorescence assay
Number in µM, nothing else.

In plain terms, "Cc1ccc(NC(=O)CN(CCCCCC(=O)NO)C(=O)c2ccc(N(C)C)cc2)cc1" has a documented IC50 of 0.0964

In plain terms, "Cc1cc(C)cc(C(=O)N(CCCCCC(=O)NO)CC(=O)NC2CCCCC2)c1" has a documented IC50 of 0.0274

In plain terms, "CN(C)c1ccc(C(=O)N(CCCCCC(=O)NO)CC(=O)NCc2ccccc2)cc1" has a documented IC50 of 0.025

In plain terms, "Cc1cc(C)cc(C(=O)N(CCCCCC(=O)NO)CC(=O)NCc2ccccc2)c1" has a documented IC50 of 0.0247

----------
Provide the reported IC50 of each item.
- Tested on: CAL-27
- protocol_details: Cytotoxicity against human CAL27 cells assessed as cell survival after 72 hrs by MTT assay
- Format: functional, cell-based
- condition_info: CAL-27, 72 h
Number in µM, nothing else.

Entry "CC(C)(C)NC(=O)C(C)(C)N(CCCCCC(=O)NO)C(=O)c1ccccc1" ; assay system CAL-27; IC50 recorded at 75.8

Entry "O=C(CCCCCN(C(=O)c1ccccc1)C1(C(=O)NC2CCCCC2)CCCCC1)NO" ; assay system CAL-27; IC50 recorded at 44.1

Entry "O=C(CCCCCN(CC(=O)NC1CCCCC1)C(=O)c1cccc2ccccc12)NO" ; assay system CAL-27; IC50 recorded at 2.4

Entry "CN(C)c1ccc(C(=O)N(CCCCCC(=O)NO)CC(=O)NCc2ccccc2)cc1" ; assay system CAL-27; IC50 recorded at 0.44

Entry "CN(C)c1ccc(C(=O)N(CCCCCC(=O)NO)CC(=O)NC(C)(C)C)cc1" ; assay system CAL-27; IC50 recorded at 4.04

Entry "O=C(CCCCCN(CC(=O)NC1CCCCC1)C(=O)c1ccccc1)NO" ; assay system CAL-27; IC50 recorded at 3.8

Entry Cc1ccc(C(C(=O)NC2CCCCC2)N(CCCCCC(=O)NO)C(=O)c2ccccc2)cc1 (stereo not given) ; assay system CAL-27; IC50 recorded at 4.52

Entry "Cc1ccc(NC(=O)CN(CCCCCC(=O)NO)C(=O)c2ccc(N(C)C)cc2)cc1" ; assay system CAL-27; IC50 recorded at 0.53

Entry O=C(CCCCCN(C(=O)c1ccccc1)C(C(=O)NC1CCCCC1)c1ccccc1)NO (stereo not given) ; assay system CAL-27; IC50 recorded at 6.36

Entry "CN(C)c1ccc(C(=O)N(CCCCCC(=O)NO)C(C)(C)C(=O)NC2CCCCC2)cc1" ; assay system CAL-27; IC50 recorded at 47.7

----------
Provide the reported log10 of IC50 of each item.
- System: CAL-27
- protocol_details: Cytotoxicity against human CAL27 cells assessed as cell survival after 72 hrs by MTT assay
- Assay type: functional, cell-based
- condition_info: CAL-27, 72 h
Short version: log10 scale, IC50, nM.

In plain terms, "Cc1cc(C)cc(C(=O)N(CCCCCC(=O)NO)CC(=O)NCc2ccccc2)c1" has a documented log10 of IC50 of 2.85

In plain terms, "CC(C)(C(=O)NC1CCCCC1)N(CCCCCC(=O)NO)C(=O)c1ccccc1" has a documented log10 of IC50 of 4.83

In plain terms, "CC(C)CNC(=O)CN(CCCCCC(=O)NO)C(=O)c1ccc(N(C)C)cc1" has a documented log10 of IC50 of 3.27

In plain terms, "CN(C)c1ccc(C(=O)N(CCCCCC(=O)NO)CC(=O)NC2CCCCC2)cc1" has a documented log10 of IC50 of 3.47

In plain terms, "CC(C)(C)NC(=O)CN(CCCCCC(=O)NO)C(=O)c1ccccc1" has a documented log10 of IC50 of 4.22

In plain terms, "Cc1ccc(NC(=O)CN(CCCCCC(=O)NO)C(=O)c2cc(C)cc(C)c2)cc1" has a documented log10 of IC50 of 3.22

In plain terms, "Cc1cc(C)cc(C(=O)N(CCCCCC(=O)NO)CC(=O)NC2CCCCC2)c1" has a documented log10 of IC50 of 3.05

----------
- target_of_assay: Protein deacetylase HDAC6 (Homo sapiens)
- Sequence (Q9UBN7 whole entry): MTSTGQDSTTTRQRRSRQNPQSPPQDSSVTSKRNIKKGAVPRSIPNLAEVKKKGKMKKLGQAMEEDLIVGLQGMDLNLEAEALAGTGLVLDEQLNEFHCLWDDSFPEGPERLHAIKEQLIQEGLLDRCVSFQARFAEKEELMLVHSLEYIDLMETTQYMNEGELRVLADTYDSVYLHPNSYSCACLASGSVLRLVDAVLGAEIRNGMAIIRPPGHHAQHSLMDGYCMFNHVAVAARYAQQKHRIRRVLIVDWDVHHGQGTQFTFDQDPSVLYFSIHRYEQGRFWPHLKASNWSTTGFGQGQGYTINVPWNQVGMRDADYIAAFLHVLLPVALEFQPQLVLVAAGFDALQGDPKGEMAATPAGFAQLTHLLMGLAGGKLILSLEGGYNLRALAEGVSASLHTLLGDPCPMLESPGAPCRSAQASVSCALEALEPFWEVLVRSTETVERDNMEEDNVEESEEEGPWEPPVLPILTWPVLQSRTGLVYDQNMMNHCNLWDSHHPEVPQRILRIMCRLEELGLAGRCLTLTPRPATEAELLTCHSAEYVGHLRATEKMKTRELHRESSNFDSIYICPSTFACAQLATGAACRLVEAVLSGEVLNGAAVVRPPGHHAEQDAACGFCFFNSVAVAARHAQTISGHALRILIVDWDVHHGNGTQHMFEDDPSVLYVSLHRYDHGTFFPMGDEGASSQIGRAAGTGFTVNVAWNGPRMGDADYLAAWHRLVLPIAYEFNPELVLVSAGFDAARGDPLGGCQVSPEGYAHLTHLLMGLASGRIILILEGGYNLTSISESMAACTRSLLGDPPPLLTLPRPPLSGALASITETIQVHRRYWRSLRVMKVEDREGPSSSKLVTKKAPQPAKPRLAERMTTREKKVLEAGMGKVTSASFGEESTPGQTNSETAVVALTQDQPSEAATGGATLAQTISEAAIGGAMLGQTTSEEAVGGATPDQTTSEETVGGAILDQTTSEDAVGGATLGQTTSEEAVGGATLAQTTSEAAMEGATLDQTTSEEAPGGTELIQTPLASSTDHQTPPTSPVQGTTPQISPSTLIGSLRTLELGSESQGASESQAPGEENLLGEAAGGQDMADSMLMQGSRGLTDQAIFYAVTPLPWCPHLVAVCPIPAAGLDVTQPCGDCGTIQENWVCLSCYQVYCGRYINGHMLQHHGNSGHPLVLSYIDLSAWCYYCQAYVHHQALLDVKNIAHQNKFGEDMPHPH
- protocol_details: Inhibition of N-terminal GST-tagged recombinant human HDAC6 expressed in baculovirus infected Sf9 insect cells using Z-(Ac)Lys-AMC as substrate measured after 90 mins by fluorescence assay
Provide the reported pIC50 of each item.
Units for pIC50: none; it is -log10 of a concentration expressed in mol/L.

In plain terms, "Cc1cc(C)cc(C(=O)N(CCCCCC(=O)NO)CC(=O)NC2CCCCC2)c1" has a documented pIC50 of 6.67

In plain terms, "Cc1cc(C)cc(C(=O)N(CCCCCC(=O)NO)CC(=O)NCc2ccccc2)c1" has a documented pIC50 of 6.87

In plain terms, "Cc1ccc(NC(=O)CN(CCCCCC(=O)NO)C(=O)c2ccc(N(C)C)cc2)cc1" has a documented pIC50 of 6.97

In plain terms, "CN(C)c1ccc(C(=O)N(CCCCCC(=O)NO)CC(=O)NCc2ccccc2)cc1" has a documented pIC50 of 6.55

----------
Provide the reported pIC50 of each item.
- target_of_assay: Histone deacetylase 8 (Homo sapiens)
- Sequence (Q9BY41 whole entry): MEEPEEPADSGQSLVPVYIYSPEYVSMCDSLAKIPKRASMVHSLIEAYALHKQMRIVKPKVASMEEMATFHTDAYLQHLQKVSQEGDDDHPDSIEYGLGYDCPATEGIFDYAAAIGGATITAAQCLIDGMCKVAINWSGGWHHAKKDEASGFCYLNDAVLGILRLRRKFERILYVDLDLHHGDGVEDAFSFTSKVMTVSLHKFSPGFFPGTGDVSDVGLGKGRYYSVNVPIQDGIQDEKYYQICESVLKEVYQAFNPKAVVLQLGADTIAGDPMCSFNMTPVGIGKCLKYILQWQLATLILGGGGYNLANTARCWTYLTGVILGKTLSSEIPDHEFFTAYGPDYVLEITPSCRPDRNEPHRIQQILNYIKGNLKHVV
- protocol_details: Inhibition of human recombinant HDAC8 expressed in Escherichia coli using Z-L-Lys(epsilon-trifluoroacetyl)-AMC as substrate measured after 90 mins by fluorescence assay
Units for pIC50: none; it is -log10 of a concentration expressed in mol/L.

In plain terms, "Cc1cc(C)cc(C(=O)N(CCCCCC(=O)NO)CC(=O)NC2CCCCC2)c1" has a documented pIC50 of 5.13

In plain terms, "Cc1cc(C)cc(C(=O)N(CCCCCC(=O)NO)CC(=O)NCc2ccccc2)c1" has a documented pIC50 of 5.13

In plain terms, "CN(C)c1ccc(C(=O)N(CCCCCC(=O)NO)CC(=O)NCc2ccccc2)cc1" has a documented pIC50 of 5.56

In plain terms, "Cc1ccc(NC(=O)CN(CCCCCC(=O)NO)C(=O)c2ccc(N(C)C)cc2)cc1" has a documented pIC50 of 5.17

----------
- target_of_assay: Histone deacetylase 1/2/3/6 (Homo sapiens, UniProt Q13547+O15379+Q9UBN7+Q92769)
- protocol_details: Inhibition of HDAC1/2/3/6 in human A2780cisR cells using Boc-Lys(epsilon-Ac)-AMC as substrate preincubated for 18 hrs followed by substrate addition measured after 3 hrs by fluorescence assay
- Assay type: cell-based
Provide the reported log10(IC50) of each item.
Short version: log10 scale, IC50, nM.

In plain terms, "CN(C)c1ccc(C(=O)N(CCCCCC(=O)NO)CC(=O)NC(C)(C)C)cc1" has a documented log10(IC50) of 3.40

In plain terms, "CC(C)CNC(=O)CN(CCCCCC(=O)NO)C(=O)c1ccc(N(C)C)cc1" has a documented log10(IC50) of 2.91

In plain terms, "CC(C)(C)NC(=O)CN(CCCCCC(=O)NO)C(=O)c1ccccc1" has a documented log10(IC50) of 3.98

In plain terms, "Cc1cc(C)cc(C(=O)N(CCCCCC(=O)NO)CC(=O)NC2CCCCC2)c1" has a documented log10(IC50) of 2.97

In plain terms, "Cc1ccc(NC(=O)CN(CCCCCC(=O)NO)C(=O)c2ccc(N(C)C)cc2)cc1" has a documented log10(IC50) of 2.83

In plain terms, "Cc1ccc(NC(=O)CN(CCCCCC(=O)NO)C(=O)c2cc(C)cc(C)c2)cc1" has a documented log10(IC50) of 2.91

In plain terms, "CC(C)(C(=O)NC1CCCCC1)N(CCCCCC(=O)NO)C(=O)c1ccccc1" has a documented log10(IC50) of 4.65

----------
Provide the reported log10(IC50) of each item.
- target_of_assay: Histone deacetylase 1/2/3/6 (Homo sapiens, UniProt Q13547+O15379+Q9UBN7+Q92769)
- protocol_details: Inhibition of HDAC1/2/3/6 in human A2780 cells using Boc-Lys(epsilon-Ac)-AMC as substrate preincubated for 18 hrs followed by substrate addition measured after 3 hrs by fluorescence assay
- Assay type: cell-based
Short version: log10 scale, IC50, nM.

In plain terms, "O=C(CCCCCN(C(=O)c1ccccc1)C1(C(=O)NC2CCCCC2)CCCCC1)NO" has a documented log10(IC50) of 4.13

In plain terms, "Cc1ccc(NC(=O)CN(CCCCCC(=O)NO)C(=O)c2cc(C)cc(C)c2)cc1" has a documented log10(IC50) of 3.11

In plain terms, "O=C(CCCCCN(CC(=O)NC1CCCCC1)C(=O)c1ccccc1)NO" has a documented log10(IC50) of 3.22

In plain terms, O=C(CCCCCN(C(=O)c1ccccc1)C(C(=O)NC1CCCCC1)c1ccccc1)NO (configuration not stated) has a documented log10(IC50) of 3.50

In plain terms, "CN(C)c1ccc(C(=O)N(CCCCCC(=O)NO)CC(=O)NC(C)(C)C)cc1" has a documented log10(IC50) of 3.31

In plain terms, "Cc1ccc(NC(=O)CN(CCCCCC(=O)NO)C(=O)c2ccc(N(C)C)cc2)cc1" has a documented log10(IC50) of 2.82

In plain terms, "CN(C)c1ccc(C(=O)N(CCCCCC(=O)NO)CC(=O)NCc2ccccc2)cc1" has a documented log10(IC50) of 2.68
